System: NCI/ADR-RES ovarian
Test: NCI tumour cell line growth inhibition, 48 h
Attribute Measured: TGI

Compound	Observed
CCOc1ccc2nc(SCc3nc4n(n3)S(=O)(=O)c3ccccc3N4C)sc2c1	> 100 µM
Cc1cnc2sn(-c3ccc(Oc4ccccc4)cc3)c(=O)c2c1	55.7 µM
Cn1cc(C2=C(c3cn(CCCCN)c4ccccc34)C(=O)NC2=O)c2ccccc21	> 25 µM

Look up TGI for this compound: O=C(/C=C/c1ccc(O)c(O)c1)OCCCc1ccccc1 28.6 µM

Look up TGI for this compound: COc1ccc(-c2cc(=O)c3ccc(C)nc3[nH]2)cc1 > 100 µM

Look up TGI for this compound: C[C@H](CCC(=O)NCCS(=O)(=O)O)[C@H]1CC[C@H]2[C@@H]3CC[C@@H]4C[C@H](O)CC[C@]4(C)[C@H]3CC[C@]12C > 100 µM

Look up TGI for this compound: CC1=Nc2nc(Cl)cn2C(=O)C1(Cl)Cl > 10 µM
